# System: Crude diglycosidase
# assay.protocol: Examination of substrate concentration in the conversion into isoflavone aglycons by diglycosidase using soybean materials
# Type: biochemical, Penicillium multicolor IAM7153
# condition.parameters: substrate concentration 2%, heat treatment of enzyme yes, reaction time 6 h
endpoint.name: Decomposition efficiency of genistin family in defatted soybean

compound="CC(=O)OC[C@H]1O[C@@H](Oc2cc(O)c3c(=O)c(-c4ccc(O)cc4)coc3c2)[C@H](O)[C@@H](O)[C@@H]1O [acetylgenistin, 6″-O-acetylgenistin]" obs_value=1.5

I. O=c1c(-c2ccc(O)cc2)coc2cc(O[C@@H]3O[C@H](CO)[C@@H](O)[C@H](O)[C@H]3O)cc(O)c12 [genisitin]
II. O=c1c(-c2ccc(O)cc2)coc2cc(O)cc(O)c12 [genistein]
Look at I and II . Which one has the lower recorded Decomposition efficiency of genistin family in defatted soybean number? Returns: label corresponding to the selected item. II

====

# Test system: Crude diglycosidase
# assay.protocol: Examination of substrate concentration in the conversion into isoflavone aglycons by diglycosidase using soybean materials;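 for Decomposition efficiency: ratio of each glycoside/aglycon within its isoflavone family: percent of the isoflavone family total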
# Assay type: biochemical, Penicillium multicolor IAM7153
# condition.parameters: soymilk, substrate concentration 5%, heat treatment of enzyme no, reaction time 6 h
endpoint.name: Decomposition efficiency: ratio of each glycoside/aglycon within its isoflavone family

structure_smiles_string=O=C(O)CC(=O)OC[C@H]1O[C@@H](Oc2ccc3c(=O)c(-c4ccc(O)cc4)coc3c2)[C@H](O)[C@@H](O)[C@@H]1O tested_on="Crude diglycosidase" obs_value=6.1%
structure_smiles_string=O=c1c(-c2ccc(O)cc2)coc2cc(O[C@@H]3O[C@H](CO)[C@@H](O)[C@H](O)[C@H]3O)ccc12 tested_on="Crude diglycosidase" obs_value="not detected"
structure_smiles_string=COc1cc2c(=O)c(-c3ccc(O)cc3)coc2cc1O[C@@H]1O[C@H](CO)[C@@H](O)[C@H](O)[C@H]1O tested_on="Crude diglycosidase" obs_value="not detected"
structure_smiles_string=CC(=O)OC[C@H]1O[C@@H](Oc2cc(O)c3c(=O)c(-c4ccc(O)cc4)coc3c2)[C@H](O)[C@@H](O)[C@@H]1O tested_on="Crude diglycosidase" obs_value="not detected"

====

# Tested on: Crude diglycosidase
# assay.protocol: Examination of substrate concentration in the conversion into isoflavone aglycons by diglycosidase using soybean materials
# Type: biochemical, Penicillium multicolor IAM7153
# condition.parameters: substrate concentration 10%, heat treatment of enzyme no, reaction time 1 h
endpoint.name: Decomposition efficiency of genistin family in defatted soybean

structure_smiles_string=O=C(O)CC(=O)OC[C@H]1O[C@@H](Oc2cc(O)c3c(=O)c(-c4ccc(O)cc4)coc3c2)[C@H](O)[C@@H](O)[C@@H]1O obs_value=41.5

P. O=c1c(-c2ccc(O)cc2)coc2cc(O)cc(O)c12
Q. CC(=O)OC[C@H]1O[C@@H](Oc2cc(O)c3c(=O)c(-c4ccc(O)cc4)coc3c2)[C@H](O)[C@@H](O)[C@@H]1O
Hi team, can someone confirm which has the larger Decomposition efficiency of genistin family in defatted soybean: P or Q ? Thanks. Field: selected label. Fill in the label of the entry you choose. P
(P: 57.2, Q: 1.3)

====

# System: Crude diglycosidase
# assay.protocol: Examination of temperature in the conversion into isoflavone aglycons by diglycosidase using soybean materials
# Type: biochemical, Penicillium multicolor IAM7153
# condition.parameters: 55 °C; heat treatment of enzyme: no; 6 h
endpoint.name: Decomposition efficiency of glycitin family in soymilk (%)

P. COc1cc2c(=O)c(-c3ccc(O)cc3)coc2cc1O[C@@H]1O[C@H](COC(=O)CC(=O)O)[C@@H](O)[C@H](O)[C@H]1O [malonylglycitin, 6″-O-malonylglycitin]
Q. COc1cc2c(=O)c(-c3ccc(O)cc3)coc2cc1O [glycitein]
Looking at recorded values for Decomposition efficiency of glycitin family in soymilk, does P or Q come in lower? Write down the label attached to your selection. P
(P: 16.5%, Q: 83.5%)

====

# Test system: Crude diglycosidase
# assay.protocol: Examination of pH in the conversion into isoflavone aglycons by diglycosidase using soybean materials
# Type: biochemical, Penicillium multicolor IAM7153
# Parameters: concentration or dose not given beside the values
# condition.parameters: pH4.8; heat treatment of enzyme: no; reaction time 1 h
endpoint.name: Decomposition efficiency of daidzin family in defatted soybean (%)

I. O=c1c(-c2ccc(O)cc2)coc2cc(O)ccc12
II. O=C(O)CC(=O)OC[C@H]1O[C@@H](Oc2ccc3c(=O)c(-c4ccc(O)cc4)coc3c2)[C@H](O)[C@@H](O)[C@@H]1O
Could you check which of I and II has a smaller value for Decomposition efficiency of daidzin family in defatted soybean? In your reply, give the label of the chosen option. II

====

# System: Crude diglycosidase
# assay.protocol: Examination of pH in the conversion into isoflavone aglycons by diglycosidase using soybean materials
# Assay type: biochemical, Penicillium multicolor IAM7153
# condition.parameters: pH11.6, heat treatment of enzyme yes, reaction time 6 h, 55° C.
endpoint.name: Decomposition efficiency of glycitin family in soymilk

P. COc1cc2c(=O)c(-c3ccc(O)cc3)coc2cc1O[C@@H]1O[C@H](CO)[C@@H](O)[C@H](O)[C@H]1O
Q. COc1cc2c(=O)c(-c3ccc(O)cc3)coc2cc1O
R. COc1cc2c(=O)c(-c3ccc(O)cc3)coc2cc1O[C@@H]1O[C@H](COC(=O)CC(=O)O)[C@@H](O)[C@H](O)[C@H]1O
Ranking by Decomposition efficiency of glycitin family in soymilk (descending) is requested for the entries above. Ranked list of labels, please, in the requested order. P, R, Q

====

# Tested on: Crude diglycosidase
# assay.protocol: Examination of temperature in the conversion into isoflavone aglycons by diglycosidase using soybean materials
# Type: biochemical, Penicillium multicolor IAM7153
# condition.parameters: 55 °C; heat treatment of enzyme: no; 3 h
endpoint.name: Decomposition efficiency of glycitin family in concentrated soybean protein (%)

I. COc1cc2c(=O)c(-c3ccc(O)cc3)coc2cc1O [glycitein]
II. COc1cc2c(=O)c(-c3ccc(O)cc3)coc2cc1O[C@@H]1O[C@H](COC(C)=O)[C@@H](O)[C@H](O)[C@H]1O [acetylglycitin, 6″-O-acetylglycitin]
III. COc1cc2c(=O)c(-c3ccc(O)cc3)coc2cc1O[C@@H]1O[C@H](COC(=O)CC(=O)O)[C@@H](O)[C@H](O)[C@H]1O [malonylglycitin, 6″-O-malonylglycitin]
# rank by Decomposition efficiency of glycitin family in concentrated soybean protein, ascending (min first) Your reply should list the labels following the order given in the request. III, II, I
(III: 0.5%, II: 29.8%, I: 69.7%)

====

# Test system: Crude diglycosidase
# assay.protocol: Examination of substrate concentration in the conversion into isoflavone aglycons by diglycosidase using soybean materials;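 for Decomposition efficiency: ratio of each glycoside/aglycon within its isoflavone family: percent of the isoflavone family total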
# Format: biochemical, Penicillium multicolor IAM7153
# condition.parameters: soymilk, substrate concentration 20%, heat treatment of enzyme no, reaction time 0 h
endpoint.name: Decomposition efficiency: ratio of each glycoside/aglycon within its isoflavone family (%)

compound="O=C(O)CC(=O)OC[C@H]1O[C@@H](Oc2ccc3c(=O)c(-c4ccc(O)cc4)coc3c2)[C@H](O)[C@@H](O)[C@@H]1O [malonyldaidzin, 6″-O-malonyldaidzin]" unit_tag=% obs_value=53.6
compound="COc1cc2c(=O)c(-c3ccc(O)cc3)coc2cc1O[C@@H]1O[C@H](COC(=O)CC(=O)O)[C@@H](O)[C@H](O)[C@H]1O [malonylglycitin, 6″-O-malonylglycitin]" unit_tag=% obs_value=41.3
compound="O=c1c(-c2ccc(O)cc2)coc2cc(O[C@@H]3O[C@H](CO)[C@@H](O)[C@H](O)[C@H]3O)ccc12 [daidzin]" unit_tag=% obs_value=34.1
compound="COc1cc2c(=O)c(-c3ccc(O)cc3)coc2cc1O[C@@H]1O[C@H](CO)[C@@H](O)[C@H](O)[C@H]1O [glycitin]" unit_tag=% obs_value=52.4

I. COc1cc2c(=O)c(-c3ccc(O)cc3)coc2cc1O [glycitein]
II. O=C(O)CC(=O)OC[C@H]1O[C@@H](Oc2cc(O)c3c(=O)c(-c4ccc(O)cc4)coc3c2)[C@H](O)[C@@H](O)[C@@H]1O [malonylgenistin, 6″-O-malonylgenistin]
III. CC(=O)OC[C@H]1O[C@@H](Oc2cc(O)c3c(=O)c(-c4ccc(O)cc4)coc3c2)[C@H](O)[C@@H](O)[C@@H]1O [acetyl-genistin]
IV. O=c1c(-c2ccc(O)cc2)coc2cc(O[C@@H]3O[C@H](CO)[C@@H](O)[C@H](O)[C@H]3O)cc(O)c12 [genistin]
Sort low-to-high on Decomposition efficiency: ratio of each glycoside/aglycon within its isoflavone family, please. Write the labels out in the order the request specifies. III, I, IV, II

====

# Tested on: Crude diglycosidase
# assay.protocol: Examination of substrate concentration in the conversion into isoflavone aglycons by diglycosidase using soybean materials;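 for Decomposition efficiency: ratio of each glycoside/aglycon within its isoflavone family: percent of the isoflavone family total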
# Type: biochemical, Penicillium multicolor IAM7153
# condition.parameters: roasted soy flour, substrate concentration 2%, heat treatment of enzyme yes, reaction time 6 h
endpoint.name: Decomposition efficiency: ratio of each glycoside/aglycon within its isoflavone family (%)

The cases that follow already have their Decomposition efficiency: ratio of each glycoside/aglycon within its isoflavone family on record.
structure_smiles_string=CC(=O)OC[C@H]1O[C@@H](Oc2ccc3c(=O)c(-c4ccc(O)cc4)coc3c2)[C@H](O)[C@@H](O)[C@@H]1O obs_value=47.2
structure_smiles_string=O=c1c(-c2ccc(O)cc2)coc2cc(O[C@@H]3O[C@H](CO)[C@@H](O)[C@H](O)[C@H]3O)cc(O)c12 obs_value=48.4

P. COc1cc2c(=O)c(-c3ccc(O)cc3)coc2cc1O[C@@H]1O[C@H](CO)[C@@H](O)[C@H](O)[C@H]1O
Q. COc1cc2c(=O)c(-c3ccc(O)cc3)coc2cc1O[C@@H]1O[C@H](COC(C)=O)[C@@H](O)[C@H](O)[C@H]1O
R. COc1cc2c(=O)c(-c3ccc(O)cc3)coc2cc1O
Ascending by Decomposition efficiency: ratio of each glycoside/aglycon within its isoflavone family, please: list the compounds accordingly. Give your ranking as a list of the labels in the requested order. R, Q, P
(R: 12.2%, Q: 34.4%, P: 53.4%)
